Reported pIC50 values for a set of compounds
molecular target: DNA-PK phosphorylation at serine 2056 (Homo sapiens (Human), UniProt P78527); assay: DNA-PK phosphorylation at serine 2056 (cellular), bleomycin-treated HCT116 cells, ELISA; format: cell-based; settings: cellular DNA-PK phosphorylation at serine 2056, HCT116; read-out: IC50 pDNA-PK
pIC50: −log10 of the molar value.

# count of solved cases: 6
COc1nccnc1C(O)c1ccc(F)c(-c2ncnc3cc(N4CCOCC4)cc(F)c23)c1 (single isomer, unassigned) [Example 253] | 5.00 to 5.30
Cc1nccnc1C(C(N)=O)c1cc(-c2ncnc3cc(N4CCOCC4)sc23)c(F)cc1Cl (stereo not shown) | 5.30 to 6.30
Cc1cncc(C(O)c2ccc(F)c(-c3ncnc4cc(N5CCOCC5)ccc34)c2)n1 (stereo not shown) | 5.00 to 5.30
Cn1c(C(O)c2cc(-c3ncnc4cc(N5CCOCC5)ccc34)c(F)cc2F)cccc1=O (stereo not shown) [Example 436] | 5.30 to 6.30
NC(=O)C(c1cccnc1)c1cc(-c2ncnc3cc(N4CCOCC4)ccc23)c(F)cc1Cl (stereo not shown) | 5.00 to 5.30
Cc1nccnc1[C@H](O)c1ccc(F)c(-c2ncnc3cc(N4CCOCC4)cnc23)c1 | > 6.30

Note: attention shifts to another entry.
Param item = OC(c1cccnn1)c1cc(-c2ncnc3cc(N4CCOCC4)ccc23)ccc1Cl (single isomer, unassigned) [Example 470] ; retrieve measured pIC50. > 6.30
